Tested on: DeltatarO mutant
Assay: S. aureus survival, RN4220 and DeltatarO strains – OD600, teichoic acid synthesis inhibitors, primary screen (AID 463173)
Conditions: S. aureus RN4220 wild type/DeltatarO growth, OD600, 18 h, active compounds read low, screened at 18.75 µg/mL (by protocol)
Among all 52,000 compounds or so, about 4,300 (8.3%) were called active. What follows is part of a selection rich in actives, with near analogues and random picks from the rest.
# survival per entry
recorded-metric: survival (%)

{"compound": "COc1c(C)cc(S(=O)(=O)Nc2cccc(-c3ccc(N4CCOCC4)nn3)c2)c(C)c1C", "val": 91}
{"compound": "Cc1ccc2c(c1)N(CC(=O)OCC(=O)NCc1ccccc1)C(=O)CO2", "val": 81}
{"compound": "Cc1ccc(NC(=O)C(=O)NCCc2sc(-c3ccc(Cl)cc3)nc2C)cc1C", "val": 104}
{"compound": "O=C(Nc1nc2n(n1)C(c1ccc(F)cc1)C=C(c1ccccc1)N2)c1ccco1 (stereo not given)", "val": 41}
{"compound": "O=C(Nc1nc2n(n1)C(c1ccccc1)C=C(c1ccc(Cl)cc1)N2)c1ccco1 (stereo not given)", "val": 42}
{"compound": "COc1ccc(C(=O)Nc2nc3n(n2)C(c2ccc(Cl)cc2)C=C(c2ccccc2)N3)cc1OC (stereo not given)", "val": 59}
{"compound": "O=C(Nc1nc2n(n1)C(c1ccc(F)cc1)C=C(c1ccc(Cl)cc1)N2)c1ccco1 (stereo not given)", "val": 16}
{"compound": "O=C(Nc1nc2n(n1)C(c1ccc(Cl)cc1)C=C(c1ccccc1)N2)c1ccco1 (stereo not given)", "val": 35}
{"compound": "CCOC(=O)c1ccc(NC(=O)CSc2c3c(nc4cc(Cl)ccc24)CCCC3)cc1", "val": 68}
{"compound": "Cc1ccc2c(c1)N(CCC(=O)NCc1ccccc1Cl)C(=O)CO2", "val": 40}
{"compound": "CCC(C)NC(=O)CSc1c2c(nc3cc(Cl)ccc13)CCCC2 (stereo not given)", "val": 82}
{"compound": "Cc1ccc(C)c(NC(=O)CSc2c3c(nc4ccc(Cl)cc24)CCCC3)c1", "val": 53}
{"compound": "O=C(Cn1c(=O)c2cccn2c2ccc(F)cc21)N1CCN(c2ccccc2F)CC1", "val": 56}
{"compound": "COc1ccccc1CNC(=O)c1cc(S(=O)(=O)N2CCCCCC2)cn1C", "val": 113}
{"compound": "CC1CCCN(C(=O)CSc2c3c(nc4cc(Cl)ccc24)CCCC3)C1 (stereo not given)", "val": -5}
{"compound": "Cc1ccc(-c2nc(C)c(CCNC(=O)C(=O)Nc3ccc(C)c(Cl)c3)s2)cc1", "val": 74}
{"compound": "CCOC(=O)C1=C(CS(=O)(=O)c2cccc(C(F)(F)F)c2)NC(=O)NC1c1cccc(OC)c1 (stereo not given)", "val": 48}
{"compound": "CCOc1ccc(NC(=O)Cn2cc(S(=O)(=O)c3ccc(C)cc3)c(=O)c3cc(F)ccc32)cc1", "val": 74}
{"compound": "CC1CCN(C(=O)CSc2c3c(nc4ccc(Cl)cc24)CCCC3)CC1", "val": 0}
{"compound": "CC1CCCN(CCCNC(=O)Cn2ncc3c([nH]c4ccccc43)c2=O)C1 (stereo not given)", "val": 94}

* * *

Tested on: DeltatarO mutant
Experiment: S. aureus survival, RN4220 and DeltatarO strains – OD600, teichoic acid synthesis inhibitors, primary screen (AID 463173)
Details: S. aureus RN4220 wild type/DeltatarO growth, OD600, 18 h, active compounds read low, screened at 18.75 µg/mL (by protocol)
The campaign covered roughly 52,000 compounds. About 4,300 (8.3%) were called active. Only a selection was taken, and actives are over-represented in it overall.
recorded-metric: survival (%)

{"molecule": "Cc1ccc(CNCc2c(C(=O)O)n(Cc3ccc(C)cc3)c3cc(C)ccc23)cc1", "recorded-metric": "survival", "val": 2}
{"molecule": "COc1ccc(CNC(=O)C(=O)Nc2c3c(nn2-c2ccccc2)CSC3)cc1", "recorded-metric": "survival", "val": 86}
{"molecule": "Cc1ccc2c(CNCc3cccs3)c(C(=O)O)n(Cc3ccc(F)cc3)c2c1", "recorded-metric": "survival", "val": 82}
{"molecule": "COc1ccc(Cn2c(C(=O)O)c(CNCc3cccc(OC)c3)c3ccc(C)cc32)cc1", "recorded-metric": "survival", "val": 74}
{"molecule": "Cc1cccc(NC(=O)c2sc(-n3nc(C)c(CCC(C)C)c3C)nc2C)c1", "recorded-metric": "survival", "val": 53}
{"molecule": "CCc1nn2c(=O)cc(COC(=O)c3ccc(NC(=O)CCc4ccccc4)cc3)nc2s1", "recorded-metric": "survival", "val": 99}
{"molecule": "O=C(NCCCN1CCCC1)c1ccccc1Cl", "recorded-metric": "survival", "val": 86}
{"molecule": "C=Cc1ccc(Cn2c(C(=O)O)c(CNCc3ccc(F)cc3)c3ccc(C)cc32)cc1", "recorded-metric": "survival", "val": 86}
{"molecule": "CCOc1cccc2cc(-c3nc(-c4ccccc4C)no3)c(=O)oc12", "recorded-metric": "survival", "val": 76}
{"molecule": "Cc1ccc2c(CNCCc3ccc(Cl)cc3)c(C(=O)O)n(Cc3ccc(F)cc3)c2c1", "recorded-metric": "survival", "val": 8}
{"molecule": "COc1cccc(N2C(=O)CSC23C(=O)N(Cc2ccccc2)c2ccccc23)c1 (stereo unspecified)", "recorded-metric": "survival", "val": 80}
{"molecule": "CC(NC(=O)c1ccc(NC(=O)c2nsc3ccccc23)cc1)c1ccccc1 (stereo unspecified)", "recorded-metric": "survival", "val": 84}
{"molecule": "C=Cc1ccc(Cn2c(C(=O)O)c(CNCc3ccccc3)c3ccc(C)cc32)cc1", "recorded-metric": "survival", "val": 120}
{"molecule": "CS(=O)(=O)c1ccc2nc(NC(=O)CN3C(=O)c4ccccc4C3=O)sc2c1", "recorded-metric": "survival", "val": 85}
{"molecule": "COc1cccc(CN2C(=O)C3(SCC(=O)N3c3ccc(C(C)C)cc3)c3ccccc32)c1 (stereo unspecified)", "recorded-metric": "survival", "val": 55}
{"molecule": "Cc1ccc(Cn2c(C)c(CNCc3ccc(OC(C)C)cc3)c(C(=O)O)c2C)cc1", "recorded-metric": "survival", "val": 121}
{"molecule": "O=C(NC12CC3CC(CC(C3)C1)C2)c1ccco1", "recorded-metric": "survival", "val": 72}
{"molecule": "COc1ccc(Cn2c(C(=O)O)c(CNCc3cccs3)c3ccc(C)cc32)cc1", "recorded-metric": "survival", "val": 89}
{"molecule": "Cc1ccc(Cn2c(C(=O)O)c(CNCc3ccccc3Cl)c3ccc(C)cc32)cc1", "recorded-metric": "survival", "val": 58}
{"molecule": "Cc1ccc(Cn2c(C(=O)O)c(CNCc3cccs3)c3ccc(C)cc32)cc1", "recorded-metric": "survival", "val": 48}
{"molecule": "Cc1c(-c2ccc(Cl)cc2)c(=O)oc2c(CN3CCOCC3)c(O)ccc12", "recorded-metric": "survival", "val": 82}

* * *

Tested on: DeltatarO mutant
Experiment: S. aureus survival, RN4220 and DeltatarO strains – OD600, teichoic acid synthesis inhibitors, primary screen (AID 463173)
Conditions: S. aureus RN4220 wild type/DeltatarO growth, OD600, 18 h, screened at 18.75 µg/mL (by protocol)
Screen size: about 52,000 compounds; about 4,300 (8.3%) were called active. No stated cut-off is given here; in the data, active means survival mostly below about 52% (no sharp cut-off); inactive means mostly above about 56%. The list comes from a sample in which actives are over-represented; it also holds close analogues and randomly drawn compounds.
Outcomes: t (active), f (inactive)

{"compound": "Cc1cccc(OCC(=O)Nc2ccccc2C(=O)OCc2cc(=O)n3ccsc3n2)c1", "label-class": "f"}
{"compound": "O=C1CCc2cc(S(=O)(=O)NCc3ccc(Cl)cc3)cc3c2N1CC3", "label-class": "f"}
{"compound": "O=C(COc1ccc2ccccc2c1)NC1CC(=O)N(c2ccc(F)cc2)C1 (configuration not stated)", "label-class": "f"}
{"compound": "N#C/C(=C\\c1ccc(Cl)cc1Cl)c1nc(-c2cccc(Cl)c2)cs1", "label-class": "f"}
{"compound": "Cc1ccc2c(c1)N(CC(=O)N(Cc1cccnc1)C1CCCC1)C(=O)C(C)O2 (configuration not stated)", "label-class": "f"}
{"compound": "CCOC(=O)c1[nH]c2c(c1Cc1ccccc1)C(=O)CC(c1ccc(Cl)cc1)C2 (configuration not stated)", "label-class": "f"}
{"compound": "N#CCCCN1C(=O)C(=C(C#N)C#N)c2ccccc21", "label-class": "f"}
{"compound": "CC(=O)c1cccc(NC(=O)c2cc3c(s2)-c2c(C)cccc2OC3)c1", "label-class": "f"}
{"compound": "COCCCNC(=O)CCC(=O)N1Cc2ccccc2Oc2ncccc21", "label-class": "f"}
{"compound": "N#CC(C#N)=C1c2ccccc2-c2nc(C#N)c(C#N)nc21", "label-class": "t"}
{"compound": "N#Cc1c(N)nc(SCc2ccccc2)c(C#N)c1-c1cccs1", "label-class": "f"}
{"compound": "Cc1cc(/C=C(\\C#N)C(=O)N2CCc3ccccc3C2)c(C)n1C", "label-class": "f"}
{"compound": "COc1ccc(Cl)cc1C(=O)CSc1nnnn1C1CCCCC1", "label-class": "f"}
{"compound": "N#CC(C#N)=C1c2ccccc2-c2c1nc1ccccc1[n+]2[O-]", "label-class": "f"}
{"compound": "N#C/C(=C/c1ccccc1Cl)c1nc(-c2cc3ccccc3oc2=O)cs1", "label-class": "f"}
{"compound": "CC(C(=O)NC1CC1)N1CCC(N2CCCCC2)CC1 (configuration not stated)", "label-class": "f"}
{"compound": "COc1cc(CN(C(=O)COc2ccc(F)cc2)c2ccccn2)cc(OC)c1OC", "label-class": "f"}
{"compound": "COc1ccccc1N1CCN(C(=O)c2ccc3c(c2)N(Cc2cc(C)ccc2C)C(=O)c2ccccc2S3(=O)=O)CC1", "label-class": "f"}
{"compound": "N#Cc1cc2nc3c(nc2cc1C#N)-c1cccc2cccc-3c12", "label-class": "f"}
{"compound": "O=C1c2ccccc2-c2n[nH]c(=S)nc21", "label-class": "f"}
{"compound": "COc1ccc(Cc2nc3ccc(C(=O)NCCc4ccc(Cl)cc4)cc3o2)cc1", "label-class": "f"}
{"compound": "CCc1ccccc1NC(=O)CCn1cccn1", "label-class": "f"}
